So I've got a bunch of compounds here, and I need their z-score values.
protocolSummary: P. aeruginosa biofilm formation inhibitors, primary screen, PAO1 strain, BacTiter-Glo luminescence, LB-PBS (AID 1144)
runConditions: 12 h, higher = more signal
Activity calls are given as the source filed them. How the calls were made is not given here.

Record excerpt, results attached:
- testSmiles: "CCCCC(=C=CC[C@@H](O)c1cccc(OCCO)c1)CCO"
  z-score: "-0.564 (inactive)"
- testSmiles: "Cc1ccc(S[C@]2(C(=O)NCC(F)(F)F)CC(=O)N(C3CCCCC3)[C@@H]2c2ccc(CO)cc2)cc1"
  z-score: "0.12 (inactive)"
- testSmiles: "CC(C)CNC(=O)[C@@H]1c2ccccc2C(=O)N(C(C)C)[C@H]1c1ccc(CO)cc1"
  z-score: "-0.753 (inactive)"
- testSmiles: "COC(=O)[C@@]1(Cc2ccc(F)cc2)[C@H]2c3cc(C(=O)N(C)C)n(CCO)c3C[C@H]2CN1C(=O)c1ccccc1"
  z-score: "-0.0693 (inactive)"
- testSmiles: "C[N+](C)(C)CCCCCCNC(=O)[C@@H]1C[C@@H]2C(=O)N[C@@H](Cc3ccccc3)C(=O)N2[C@@H]1c1ccc(O)cc1"
  z-score: "-0.409 (inactive)"

Working through the 2 compounds below one at a time, give z-score for each.
1. CC(C)C(=C=CC[C@@H](O)c1ccc(OCCO)cc1)CCO
2. C=CCOC(=O)[C@H]1[C@@H]2C(=O)O[C@@H](c3ccccc3)[C@@H](c3ccccc3)N2[C@@H](c2ccc(OCCOC(=O)[C@@H]3C[C@@H]4C(=O)N[C@@H](CC(C)C)C(=O)N4[C@@H]3c3ccc(O)cc3)cc2)[C@]12C(=O)Nc1ccc(I)cc12

Result:
["-0.635 (inactive)", "-1.3 (inactive)"]

====

protocolSummary: P. aeruginosa biofilm formation inhibitors, primary screen, strain PAO1, LB-PBS medium, absorbance 600 nm (AID 1176); further: test concentration not given here
runConditions: P. aeruginosa PAO1 growth/biofilm, A600, 12 h; higher = more signal
So I've got a bunch of compounds here, and I need their z-score values.
Answers are plain numbers.

Record excerpt, results attached:
- testSmiles: "C=C(CCCC)C(=O)CC[C@H](OC(=O)c1cccnc1)c1ccc(CO)o1"
  z-score: 1.45
- testSmiles: "COC(=O)[C@@]1(Cc2ccc(F)cc2)[C@H]2c3cc(C(=O)N(C)C)n(CCO)c3C[C@H]2CN1C(=O)c1ccccc1"
  z-score: 0.865
- testSmiles: "C[N+](C)(C)CCCCCCNC(=O)[C@H]1C[C@H]2C(=O)NCC(=O)N2[C@H]1c1cccc(OCCO)c1"
  z-score: -0.0743

Below: the item to evaluate.
Ask: Given the entry "COC(=O)[C@@]1(Cc2ccccc2)[C@@H]2[C@@H](CC(=O)[C@H]2CC(=O)C(=O)N(C)C)CN1C(=O)c1ccccc1" , report its measured z-score.
Result: 0.535

====

protocolSummary: RPMI8226 myeloma cell viability, profiling panel, resazurin fluorescence, basal, 24 h, PK04 Diversity Set (AID 1180);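 further: RPMI8826 multiple myeloma cell line at 5000 cells per well; test concentration not given here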
runConditions: higher = more signal
So I've got a bunch of compounds here, and I need their z-score values.
One number for each entry.

- compound: "COc1ccc(C#Cc2ccc3c(c2)[C@]2(C(=O)N3)[C@H](C(=O)Nc3nc4ccccc4s3)[C@H]3C(=O)O[C@H](c4ccccc4)[C@H](c4ccccc4)N3[C@@H]2c2ccc(OCCO)cc2)cc1"
  testResult: -0.639
- compound: "COc1ccc([Si](C)(C)[C@@H]2[C@@H](CC(=O)N(CCO)Cc3ccccc3)O[C@]3(C(=O)N(Cc4ccc(N5CCC5=O)cc4)c4ccccc43)[C@H]2C)cc1"
  testResult: -1.66
- compound: "COc1cc2c(cc1O)C(c1ccc(CN3CCCC3)cc1)N(Cc1ccc([N+](=O)[O-])o1)CC2 (stereo unspecified)"
  testResult: -0.437
- compound: "COC(=O)[C@@]1(CCS(=O)(=O)c2ccccc2)N=C(c2ccc(OCCCO)cc2)O[C@H]1c1ccccc1N=[N+]=[N-]"
  testResult: -1.64
- compound: "CO[C@H]1O[C@H](CO)[C@@H](OC(=O)Nc2ccc(C(F)(F)F)cc2)[C@H](OC(=O)Nc2ccccc2-c2ccccc2)[C@H]1OC(=O)Nc1ccccc1-c1ccccc1"
  testResult: -4.63

Below: the item to evaluate.
Ask: Given the entry CCCCN1CC=CC23O[C@@H]4/C=C\CCC(C)OC(=O)C4[C@H]2C(=O)N(C(C)CO)[C@@H]3C1=O (stereo partly specified) , report its measured z-score.
Result: -0.175

====

protocolSummary: small-molecule microarray binders of probe aWnt5a, primary screen, biochemical, biotinylated probe, 635/667 nm fluorescence (AID 1113);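 further: score merges 667 nm fluorescence intensity with signal-to-noise per printed feature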
runConditions: higher = more signal
Label MET when composite z-score >= -0.009; otherwise NOT MET.

Worked set:
- compound: "COC(=O)[C@@]1(Cc2ccc(F)cc2)[C@H]2c3cc(C(=O)N(C)C)n(CCn4cc([N+](=O)[O-])nc4C)c3C[C@H]2CN1C(=O)c1ccccc1"
  className: "MET"
- compound: "CN(C)C(=O)[C@]1(Cc2ccccc2)N=C(c2ccc(OCCCO)cc2)O[C@@H]1c1ccccc1"
  className: "MET"
- compound: "CCOC(=O)C1=CCC(c2cc3ccccc3[nH]2)N(S(=O)(=O)c2ccccc2[N+](=O)[O-])C1 (stereo not drawn)"
  className: "MET"
- compound: "CCCCCCc1nc(-c2ccc(OC)nc2)cc2c1[Si](C(C)C)(C(C)C)OC2"
  className: "NOT MET"

Ask: Is the recorded value of composite z-score equal to or greater than -0.009 for this compound? CC(C)N1CC=CC23O[C@@H]4C=CCCOC(=O)C4[C@H]2C(=O)N(CCCCCO)[C@@H]3C1=O (stereo partly drawn)
Result: NOT MET

Ask: Entry "CCc1cccc(NC(=O)O[C@H]2[C@H](OC(=O)Nc3ccc4c(c3)OCO4)[C@H](OC(=O)Nc3ccc4c(c3)OCO4)[C@@H](OC)O[C@@H]2CO)c1" please
Result: MET

Ask: Entry "C=C(COC)/C(=C/C[C@H](OC(=O)c1ccncc1)c1ccc(OCCO)cc1)c1cc(C(=O)OC)ccc1OC" please
Result: MET

Ask: Entry "[N-]=[N+]=NCc1ccccc1C[C@]1(C(=O)O)COC(c2ccc(OCCCO)cc2)=N1" please
Result: NOT MET

====

protocolSummary: basal MM1S mitochondrial membrane potential changes, profiling panel, cell-based, JC-1 fluorescence, 24 h, 100 nL compound (AID 1170); further: test concentration not given here
runConditions: higher = more signal
Label true when z-score >= -0.3; otherwise false.

Ask: Is the recorded value of z-score equal to or greater than -0.3 for this molecule? "Cc1ccc(S(=O)(=O)N2[C@@H](c3ccccc3)C(C(=O)O)=CC[C@H]2c2ccc(C#N)cc2)cc1"
Result: true

Ask: Entry "CCCCC(=C=CC[C@@H](O)c1cccc(OCCO)c1)C[C@@H](O)COCc1ccccc1" please
Result: false

Ask: Entry "COCCOC(=O)N1C(=O)[C@@]2(c3ccccc31)[C@H](C(N)=O)[C@H]1C(=O)O[C@H](c3ccccc3)[C@H](c3ccccc3)N1[C@@H]2c1ccc(OCCO)cc1" please
Result: false

====

System: glycogen synthase kinase-3 (GSK3A per assay name; protocol says GSK3B)
protocolSummary: GSK3 binders on small-molecule microarrays, primary screen, biochemical, small-molecule microarray, 635 nm fluorescence, GSK3A (AID 1103); further: the record names both GSK3A and GSK3B
runConditions: small-molecule microarray binding, fluorescence 635 nm; higher = more signal
endpointName: composite z-score
Give bare numbers.

Working through the 4 compounds below one at a time, give composite z-score for each.
1. [N-]=[N+]=NCc1ccccc1C[C@@]1(C(=O)O)N=C(c2ccc(OCCCO)cc2)O[C@@H]1c1ccccc1CN=[N+]=[N-]
2. O=C(NCC(F)(F)F)[C@@H]1c2ccccc2C(=O)N(CC23CC4CC(CC(C4)C2)C3)[C@H]1c1ccc(CO)cc1
3. COCCOC(=O)N1C(=O)[C@@]2(c3cc(C#CC4(O)CCCCCC4)ccc31)[C@H](c1ccc(OCCO)cc1)N1[C@H](c3ccccc3)[C@H](c3ccccc3)OC(=O)[C@H]1[C@@H]2C(=O)N1CCCCCCC1
4. COc1ccccc1CN1C(=O)c2ccccc2[C@](Cc2ccccc2I)(C(=O)NCCCN(C)C)[C@@H]1c1ccc(CO)cc1

Result:
[0.577, 0.804, 1.32, 1.22]

====

experimentalTarget: Concanavalin-A (Canavalia ensiformis) (UniProt P02866)
Sequence (P02866 whole entry, looked up): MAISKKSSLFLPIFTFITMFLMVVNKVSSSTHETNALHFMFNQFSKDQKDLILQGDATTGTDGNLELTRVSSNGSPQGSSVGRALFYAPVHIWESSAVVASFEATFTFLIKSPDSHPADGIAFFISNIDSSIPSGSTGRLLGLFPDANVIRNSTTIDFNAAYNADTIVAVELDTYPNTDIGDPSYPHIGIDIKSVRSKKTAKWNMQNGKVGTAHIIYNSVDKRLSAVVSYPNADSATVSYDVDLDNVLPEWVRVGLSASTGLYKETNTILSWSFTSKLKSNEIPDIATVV
protocolSummary: ConA small-molecule binders, primary screen, artefact control for SMM control protein annotation, biochemical, small-molecule microarray, Alexa647 label, 635 nm (AID 1127);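 further: z combines 667 nm emission intensity with signal-to-noise across three replicate slides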
runConditions: ConA-A647 binding fluorescence, higher = more signal
Label TRUE when composite z-score >= 0.3; otherwise FALSE.

Worked set:
- compound: "COc1ccc(CCNC(=O)[C@@]2(Sc3ccc(C)cc3)CC(=O)N(Cc3cc(C(F)(F)F)cc(C(F)(F)F)c3)[C@@H]2c2ccc(CO)cc2)cc1"
  className: "FALSE"
- compound: "CC(=O)n1cc(C(O)C2C=CC3C(=O)N(c4ccccc4)C(=O)C3N2Nc2ccccc2F)c2ccccc21 (stereo not drawn)"
  className: "TRUE"
- compound: "CCCCC(O)C1C=CC2C(=O)NC(=O)C2N1Nc1ccc(Cl)cc1Cl (stereo not drawn)"
  className: "FALSE"
- compound: "COCCCN1C(=O)[C@@]2(Cc3ccccc31)c1ccccc1C(=O)N(Cc1ccccc1OC)[C@H]2c1ccc(CO)cc1"
  className: "FALSE"
- compound: "CCCCC(=C=CC[C@@H](O)c1cccc(OCCO)c1)CCO"
  className: "FALSE"
- compound: "N#Cc1ccc(C(O)C2C=CC3C(=O)N(c4ccccc4)C(=O)C3N2Nc2ccc([N+](=O)[O-])cc2)cc1 (stereo not drawn)"
  className: "TRUE"

Ask: Is the recorded value of composite z-score equal to or greater than 0.3 for this compound? "Cc1ccc(S[C@]2(C(=O)NCC(F)(F)F)CC(=O)N(C3CCCCC3)[C@@H]2c2ccc(CO)cc2)cc1"
Result: FALSE

Ask: Entry "COCCOC(=O)N1C(=O)[C@@]2(c3cc(C#Cc4ccc(OC)cc4)ccc31)[C@H](c1ccc(OCCO)cc1)N1[C@H](c3ccccc3)[C@H](c3ccccc3)OC(=O)[C@H]1[C@@H]2C(=O)N1CCCCCCC1" please
Result: TRUE
